Target: T1, PARP4 BRCT-WGR-CAT WT (human, UniProt Q9UKK3 1-573)
T1 sequence: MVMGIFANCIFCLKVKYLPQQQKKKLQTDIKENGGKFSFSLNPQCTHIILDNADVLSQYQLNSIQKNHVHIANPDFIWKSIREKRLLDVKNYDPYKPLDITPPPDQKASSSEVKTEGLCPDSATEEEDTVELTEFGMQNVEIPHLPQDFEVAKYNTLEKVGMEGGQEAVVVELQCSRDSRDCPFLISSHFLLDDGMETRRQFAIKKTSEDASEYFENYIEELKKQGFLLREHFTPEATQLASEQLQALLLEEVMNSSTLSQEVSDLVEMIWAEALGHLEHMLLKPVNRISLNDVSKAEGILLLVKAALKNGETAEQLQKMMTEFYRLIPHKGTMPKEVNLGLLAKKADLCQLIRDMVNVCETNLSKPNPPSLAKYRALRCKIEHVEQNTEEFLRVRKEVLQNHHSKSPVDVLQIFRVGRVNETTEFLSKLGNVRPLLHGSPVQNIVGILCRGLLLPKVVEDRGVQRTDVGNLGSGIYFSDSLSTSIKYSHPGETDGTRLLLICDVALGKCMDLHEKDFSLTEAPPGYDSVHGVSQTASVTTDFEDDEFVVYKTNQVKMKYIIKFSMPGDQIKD
Experiment: EMSA; 20 nM probe; FP: 50 mM Tris pH 7.5, 50 mM NaCl, 1 mM MgCl2, 0.05% NP40, 2 mM DTT, 5% glycerol, 25 ug/ml BSA, room temp 30 min; EMSA: 50 mM Tris pH 7.5, 50 mM NaCl, 4% Ficoll PM400, 0.05% NP40, 2 mM DTT, 0-18 uM protein, room temp 30 min, gel at 4 C
Conditions: protein: recombinant; tags: N-terminal His-SUMO removed by TEV; label: 5'-6-FAM; predicted intramolecular fold
value_type: pKd
Numbers only, as −log10 of the molar value.

// pKd lookup, binder = vtRNA1-3 (structured_RNA) RNA: GGCUGGCUUUAGCUCAGCGGUUACUUCGCGUGUCAUCAAACCACCUCUCUGGGUUGUUCGAGACCCGCGGGCGCUCUCCAGCCCUCUU , result: 5.52
